target: androgen receptor (Rattus norvegicus); experiment: L929 androgen receptor functional assay, adenovirus transduction; format: cell-based; set-up: expressed in transfected cells; conditions: 3 μM; L929 cells, agonist testing (no R1881), luciferase
assay.readout: % Activition @ 3 μM (%)

>>> df
                                    compound                            target_desc        assay_readout  unit_spec  measured
 0  COC(=O)C1(C)CN(c2ccccc2)C(=O)N1 (racemic)  androgen receptor (Rattus norvegicus)  % Activition @ 3 μM          %         0
 1  CC1(C(=O)Nc2ccc(C(F)(F)F)nc2)CN(c2ccccc2)C(=O)N1 (racemic)  androgen receptor (Rattus norvegicus)  % Activition @ 3 μM          %         0
 2  COc1ccc(N2CC(C)(C(=O)O)NC2=O)cc1 (racemic)  androgen receptor (Rattus norvegicus)  % Activition @ 3 μM          %        −5
 3  COC(=O)C1(C)CN(c2ccc(Cl)c(C(F)(F)F)c2)C(=O)N1 (racemic)  androgen receptor (Rattus norvegicus)  % Activition @ 3 μM          %         0
 4  CC1(C(=O)Nc2ccc(Cl)c(C(F)(F)F)c2)CN(c2ccc(F)cc2)C(=O)N1 (racemic)  androgen receptor (Rattus norvegicus)  % Activition @ 3 μM          %         3
 5  CC1(C(=O)Nc2ccc([N+](=O)[O-])c(C(F)(F)F)c2)CN(c2ccccc2)C(=O)N1 (racemic)  androgen receptor (Rattus norvegicus)  % Activition @ 3 μM          %         2
 6  CC1(C(=O)Nc2ccc(C#N)c(C(F)(F)F)c2)CN(c2ccc(F)cc2)C(=O)N1 (centres unmarked)  androgen receptor (Rattus norvegicus)  % Activition @ 3 μM          %         9
 7  CC1(C(=O)O)CN(c2ccc(F)cc2)C(=O)N1 (centres unmarked)  androgen receptor (Rattus norvegicus)  % Activition @ 3 μM          %         1
 8  CC1(C(=O)O)CN(c2ccccc2)C(=O)N1 (racemic)  androgen receptor (Rattus norvegicus)  % Activition @ 3 μM          %         0
 9  CC1(C(=O)O)CN(c2ccc(C#N)c(C(F)(F)F)c2)C(=O)N1 (racemic)  androgen receptor (Rattus norvegicus)  % Activition @ 3 μM          %         0
10  COC(=O)C1(C)CN(c2ccc(OC)cc2)C(=O)N1 (racemic)  androgen receptor (Rattus norvegicus)  % Activition @ 3 μM          %         2
11  CC1(C(=O)Nc2ccc(C#N)c(C(F)(F)F)c2)CN(Cc2ccc(F)cc2)C(=O)N1 (racemic)  androgen receptor (Rattus norvegicus)  % Activition @ 3 μM          %         0
12  CC1(C(=O)Nc2ccc(C#N)c(C(F)(F)F)c2)CN(c2ccccc2)C(=O)N1 (racemic)  androgen receptor (Rattus norvegicus)  % Activition @ 3 μM          %         0
13  COC(=O)C1(C)CN(c2ccc(C#N)c(C(F)(F)F)c2)C(=O)N1 (racemic)  androgen receptor (Rattus norvegicus)  % Activition @ 3 μM          %         0
14  CC1(C(=O)Nc2ccccc2)CN(c2ccccc2)C(=O)N1 (racemic)  androgen receptor (Rattus norvegicus)  % Activition @ 3 μM          %         0
15  CC1(C(=O)O)CN(c2ccc(Cl)c(C(F)(F)F)c2)C(=O)N1 (racemic)  androgen receptor (Rattus norvegicus)  % Activition @ 3 μM          %         0
16  COC(=O)C1(C)CN(c2ccc(F)cc2)C(=O)N1 (centres unmarked)  androgen receptor (Rattus norvegicus)  % Activition @ 3 μM          %         0
17  CC1(C(=O)Nc2cc(C(F)(F)F)cc(C(F)(F)F)c2)CN(c2ccc(F)cc2)C(=O)N1 (racemic)  androgen receptor (Rattus norvegicus)  % Activition @ 3 μM          %         0
18  CC1(C(=O)Nc2cccc(C(F)(F)F)c2)CN(c2ccc(F)cc2)C(=O)N1 (racemic)  androgen receptor (Rattus norvegicus)  % Activition @ 3 μM          %         0
19  COc1ccc(N2CC(C)(C(=O)Nc3ccc(C#N)c(C(F)(F)F)c3)NC2=O)cc1 (racemic)  androgen receptor (Rattus norvegicus)  % Activition @ 3 μM          %         0

* * *

Listed molecules paired with reported % Inhibition @ 3 μM
Target: androgen receptor (Rattus norvegicus)
Sequence (P15207 1-902): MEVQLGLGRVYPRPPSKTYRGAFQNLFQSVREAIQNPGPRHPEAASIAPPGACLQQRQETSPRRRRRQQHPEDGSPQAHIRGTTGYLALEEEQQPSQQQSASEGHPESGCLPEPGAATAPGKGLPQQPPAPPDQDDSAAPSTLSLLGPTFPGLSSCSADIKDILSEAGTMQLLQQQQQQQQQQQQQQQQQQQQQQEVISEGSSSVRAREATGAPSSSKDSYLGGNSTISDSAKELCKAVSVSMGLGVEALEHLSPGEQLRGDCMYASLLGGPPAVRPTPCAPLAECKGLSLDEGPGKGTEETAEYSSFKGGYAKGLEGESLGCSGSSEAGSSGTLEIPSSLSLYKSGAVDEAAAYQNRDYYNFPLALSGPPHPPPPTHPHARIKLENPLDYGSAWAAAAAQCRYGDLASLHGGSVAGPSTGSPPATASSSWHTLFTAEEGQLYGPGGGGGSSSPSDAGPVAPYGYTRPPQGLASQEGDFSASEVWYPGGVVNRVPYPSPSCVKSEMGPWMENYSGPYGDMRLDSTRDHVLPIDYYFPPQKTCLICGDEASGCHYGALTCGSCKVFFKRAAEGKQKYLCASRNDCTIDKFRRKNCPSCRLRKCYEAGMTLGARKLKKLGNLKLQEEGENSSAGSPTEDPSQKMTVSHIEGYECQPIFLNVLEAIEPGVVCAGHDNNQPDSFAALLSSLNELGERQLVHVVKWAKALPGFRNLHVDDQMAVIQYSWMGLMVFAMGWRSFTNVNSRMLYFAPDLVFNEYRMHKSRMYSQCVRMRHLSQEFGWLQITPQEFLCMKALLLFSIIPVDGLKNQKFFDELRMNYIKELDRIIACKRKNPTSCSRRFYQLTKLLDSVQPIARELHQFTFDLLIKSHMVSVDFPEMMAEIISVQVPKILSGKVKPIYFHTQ
Test: COS-7 whole-cell androgen receptor binding assay, adenovirus transduction
Set-up: expressed in transfected cells
Conditions: 3 μM (3000 nM); COS-7 cells, [3H]R1881, AdEasy+rAR
Procedure: COS-7 cells were plated in 96-well plates at 20,000 cells per well, in a solution of DMEM/F12 (GIBCO) containing 10% (v/v) charcoal-treated fetal bovine serum (Hyclone) and lacking phenol red. […] To each well was then added 50 μL of 0.5% (v/v) Triton X-100 (Sigma) in 1×PBS and the plates placed on a rotary shaker for 5 min. […] To each well was then added 0.2 mL of Microscint-20 (Packard) and the wells counted on a TopCount (Packard). […]
assay.readout: % Inhibition @ 3 μM (%)

>>> print(df.to_string())
                                   molecule        assay_readout  measured
0  CC1(C(=O)Nc2ccc(Cl)c(C(F)(F)F)c2)CN(c2ccc(F)cc2)C(=O)N1 (racemic)  % Inhibition @ 3 μM        35
1  COC(=O)C1(C)CN(c2ccc(Cl)c(C(F)(F)F)c2)C(=O)N1 (racemic)  % Inhibition @ 3 μM       −30
2  COC(=O)C1(C)CN(c2ccc(OC)cc2)C(=O)N1 (racemic)  % Inhibition @ 3 μM        −8
3  CC1(C(=O)O)CN(c2ccccc2)C(=O)N1 (racemic)  % Inhibition @ 3 μM        15

* * *

molecular target: UniProtKB P15207; assay: COS-7 whole-cell androgen receptor binding assay, adenovirus transduction; set-up: expressed in transfected cells; conditions: 3 μM (3000 nM); COS-7 cells, [3H]R1881, AdEasy+rAR
Returns one of y or n; y when % Inhibition @ 3 μM is >= 30%.

>>> df
                                    molecule  category
 0  COC(=O)C1(C)CN(c2ccc(C#N)c(C(F)(F)F)c2)C(=O)N1 (racemic)         n
 1  CC1(C(=O)Nc2ccc(C(F)(F)F)nc2)CN(c2ccccc2)C(=O)N1 (racemic)         n
 2  CC1(C(=O)Nc2ccc(C#N)c(C(F)(F)F)c2)CN(Cc2ccc(F)cc2)C(=O)N1 (racemic)         n
 3  CC1(C(=O)Nc2cccc(C(F)(F)F)c2)CN(c2ccc(F)cc2)C(=O)N1 (racemic)         n
 4  COc1ccc(N2CC(C)(C(=O)Nc3ccc(C#N)c(C(F)(F)F)c3)NC2=O)cc1 (racemic)         n
 5  CC1(C(=O)Nc2ccccc2)CN(c2ccccc2)C(=O)N1 (racemic)         n
 6  COc1ccc(N2CC(C)(C(=O)O)NC2=O)cc1 (racemic)         n
 7  CC1(C(=O)O)CN(c2ccc(Cl)c(C(F)(F)F)c2)C(=O)N1 (racemic)         n
 8  CC1(C(=O)Nc2cc(C(F)(F)F)cc(C(F)(F)F)c2)CN(c2ccc(F)cc2)C(=O)N1 (racemic)         y
 9  CC1(C(=O)Nc2ccc(C#N)c(C(F)(F)F)c2)CN(c2ccccc2)C(=O)N1 (racemic)         y
10  COC(=O)C1(C)CN(c2ccccc2)C(=O)N1 (racemic)         n
11  CC1(C(=O)Nc2ccc([N+](=O)[O-])c(C(F)(F)F)c2)CN(c2ccccc2)C(=O)N1 (racemic)         y
